molecular target: Dnmt3a-CD (UniProt O88508 608-908); assay: BLI; 100 uM AdoHcy; BLI: 20 mM HEPES-NaOH pH 7.5, 100 mM KCl, 1 mM EDTA, 0.2 mM DTT, 100 uM AdoHcy, 5% glycerol, 0.02% Tween-20, 0.5 mg/mL BSA, 25 C; inhibition: buffer A (20 mM HEPES-NaOH pH 7.5, 100 mM KCl, 1 mM EDTA, 1 mM DTT) with 25 uM AdoMet, 37 C; FP: buffer A; details: protein: recombinant; tags: N-terminal 6xHis; chain copies: 2; label: 5' biotin on strand 1 (C-rich); blunt
Sequence (O88508 608-908): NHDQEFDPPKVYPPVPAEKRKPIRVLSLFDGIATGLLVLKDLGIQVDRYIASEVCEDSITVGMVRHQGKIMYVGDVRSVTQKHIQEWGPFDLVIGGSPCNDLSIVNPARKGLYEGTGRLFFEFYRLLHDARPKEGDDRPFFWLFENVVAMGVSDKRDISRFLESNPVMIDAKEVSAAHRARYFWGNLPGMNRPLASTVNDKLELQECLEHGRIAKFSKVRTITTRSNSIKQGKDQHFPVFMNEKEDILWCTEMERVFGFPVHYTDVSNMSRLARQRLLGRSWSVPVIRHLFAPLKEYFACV
RESULT_TYPE: pKd
Please treat pKd as minus the base-10 logarithm of the molar concentration.

Req: // query pKd value for entry MGMT-ds2-bio (dsDNA) DNA 1: CTCCGCCCCCGCGCGCCCCGGCCC DNA 2: GGGCCGGGGCGCGCGGGGGCGGAG
Resp: 7.82
